From: paper PMC9666628

Biological target: T1, wild-type Cbx2 chromodomain (tags removed) (human, UniProt Q14781 9-62)
T1 construct: chromodomain of human Cbx2; also called Cbx2.wt; source: E. coli BL21(DE3), purified (Ni-NTA; tags removed with TEV protease)
T1 sequence: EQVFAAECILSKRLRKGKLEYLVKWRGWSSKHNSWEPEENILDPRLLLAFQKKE
Assay: fluorescence polarisation; 0.5 nM FITC-labelled peptide; chromodomains 200-0.2 µM (wild type) or 50 µM-50 nM (Cbx7.V1 and all Cbx.VDs); 30 min at 25 °C; 25 mM HEPES pH 7.5, 150 mM NaCl, 1 mM DTT, 0.01% TritonX-100; one-site total binding model
Details: both partners purified
Observable: Kd (µM)
State the answer as a number, implicitly in µM.

Endpoint output: Kd of KQLATKAARKSAPATGGVK (trimethyl-lysine at K27; fluorescein isothiocyanate (FITC) at the N-terminus) [H3K27me3 peptide, N-terminal FITC] . Value? 100
